Target: NEK9 (human) (UniProt Q8TD19)
Sequence (Q8TD19 whole entry, looked up): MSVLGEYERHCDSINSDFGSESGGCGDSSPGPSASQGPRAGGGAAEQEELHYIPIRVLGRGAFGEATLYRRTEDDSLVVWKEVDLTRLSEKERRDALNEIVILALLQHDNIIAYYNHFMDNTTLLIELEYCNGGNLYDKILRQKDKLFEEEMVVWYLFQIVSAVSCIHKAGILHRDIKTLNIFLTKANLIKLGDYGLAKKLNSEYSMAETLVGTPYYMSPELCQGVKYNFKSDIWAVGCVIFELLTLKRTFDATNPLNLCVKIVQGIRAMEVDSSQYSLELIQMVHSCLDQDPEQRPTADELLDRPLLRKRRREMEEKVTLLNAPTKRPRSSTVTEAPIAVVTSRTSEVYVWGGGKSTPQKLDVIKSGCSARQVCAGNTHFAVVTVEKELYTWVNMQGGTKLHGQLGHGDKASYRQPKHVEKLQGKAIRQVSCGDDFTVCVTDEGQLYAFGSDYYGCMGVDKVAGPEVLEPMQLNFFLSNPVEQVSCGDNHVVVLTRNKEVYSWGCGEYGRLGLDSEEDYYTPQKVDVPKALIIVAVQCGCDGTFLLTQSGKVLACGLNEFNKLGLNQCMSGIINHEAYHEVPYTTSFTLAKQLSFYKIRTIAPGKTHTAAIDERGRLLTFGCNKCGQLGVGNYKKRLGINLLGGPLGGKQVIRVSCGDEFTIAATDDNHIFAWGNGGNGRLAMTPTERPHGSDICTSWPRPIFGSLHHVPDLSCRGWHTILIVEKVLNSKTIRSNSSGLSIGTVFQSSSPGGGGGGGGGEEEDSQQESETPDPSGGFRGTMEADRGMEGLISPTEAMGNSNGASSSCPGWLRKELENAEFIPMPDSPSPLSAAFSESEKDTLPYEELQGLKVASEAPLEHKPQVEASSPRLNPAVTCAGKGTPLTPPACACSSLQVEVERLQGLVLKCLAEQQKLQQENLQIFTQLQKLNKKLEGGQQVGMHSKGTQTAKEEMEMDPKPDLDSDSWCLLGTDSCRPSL
Assay: KINOMEscan competition binding
Conditions: compound 10.0 µM

| mol | kinase still bound, per cent of control |
| --- | --- |
| COC(=O)Nc1ccc(-c2nc(N3CCOCC3)c3cnn(C4CCN(C(=O)OC)CC4)c3n2)cc1 | 98% |
| CCC(=O)N1CCN(c2ccc(-n3c(=O)ccc4cnc5ccc(-c6cnc7ccccc7c6)cc5c43)cc2C(F)(F)F)CC1 | 100% |
| CC(C)n1nc(-c2cc3cc(O)ccc3[nH]2)c2c(N)ncnc21 | 100% |
| COc1ccc(-c2ccc3c(N4CCOCC4)nc(N4C[C@@H](C)O[C@@H](C)C4)nc3n2)cc1CO | 89% |

The reported measurements were obtained from the kinase profiling compilation of Christmann-Franck et al. (2016).
